- TESTED_ON: human EDG-4 (Homo sapiens, UniProt O95136)
- ASSAY_METHOD_TEXT: SRE luciferase reporter in 293-EBNA cells, human EDG-4
- Assay type: cell-based
- CONDITION_DESCRIPTION: conclusion from the reporter assay of Table 2
QUANTITY_NAME: Agonist character at EDG-4

INSERT INTO measurements (molecule, result) VALUES
  ('CCCCCCCCCCCCC/C=C/[C@@H](O)[C@@H](N)COP(=O)(O)O [S1P, sphingosine-1-phosphate]', 'full agonists'),
  ('CCCCCCCCCCCCC/C=C/[C@@H](O)[C@@H](N)COP(=O)([O-])OCC[N+](C)(C)C', 'full agonists');
